Study target: T1, recombinant hPEPT1 receptor domain (human PEPT1, amino acid residues 391-571), His-tag fusion protein (human) (UniProt P46059)
T1 sequence: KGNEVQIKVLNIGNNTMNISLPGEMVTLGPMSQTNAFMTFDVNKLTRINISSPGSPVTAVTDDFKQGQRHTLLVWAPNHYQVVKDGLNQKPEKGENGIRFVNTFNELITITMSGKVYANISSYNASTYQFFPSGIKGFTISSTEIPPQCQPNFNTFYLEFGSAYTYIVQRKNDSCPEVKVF
Measurement description: phage ELISA on coated hPEPT1
Ends that are not written are not given here.
Please provide measured OD for the entries that follow.
Answer format: numeric, OD 650 nm implied, no suffix.

Returns the measured OD for the input binder. Input: RPKNVADAYSSQDGAAAEETSHASNAARKSPKHKPLRRP (peptide, not shown: large carriers, also: displayed as N-terminal pIII fusion on M13 phage) [phage 5PAX3]
0.173

Dear colleague, I am looking for the recorded OD of the following binder: RWCEKHKFTAARCSAGAGFERDASRPPQPAHRDNTNRNA (peptide, not shown: large carriers, cysteine pairing not given here; also: displayed as N-terminal pIII fusion on M13 phage) [phage PAX43]
0.345
